Origin of the recorded values: patent US20230322924A1

- Target: T1, Human CD33 full length, expressed on HEK293F cells (human, UniProt P20138 18-364)
- T1 construct: HEK293F cells transduced with lentivirus containing full length human CD33; also called huCD33
- T1 sequence (P20138 18-364 limits assumed): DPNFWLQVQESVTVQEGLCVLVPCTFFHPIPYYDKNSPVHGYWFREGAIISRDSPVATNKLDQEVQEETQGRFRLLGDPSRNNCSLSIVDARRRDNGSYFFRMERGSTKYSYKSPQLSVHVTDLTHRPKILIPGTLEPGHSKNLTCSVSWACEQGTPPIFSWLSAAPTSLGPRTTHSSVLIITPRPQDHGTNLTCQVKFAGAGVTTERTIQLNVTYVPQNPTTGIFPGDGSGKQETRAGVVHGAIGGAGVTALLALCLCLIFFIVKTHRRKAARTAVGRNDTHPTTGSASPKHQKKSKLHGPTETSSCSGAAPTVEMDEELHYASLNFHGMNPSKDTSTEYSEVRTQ
- Experiment summary: flow cytometry, HEK293F cells expressing human CD33

Binder	MFI at 60 nM mAb, MFI
C33B79 (antibody, IgG1, V domains shown, huIgG1 F405L; also called C33F84; C33H74/C33L38) VH: QVQLVESGGGVVQPGRSLRLSCAASRFTFSSYGMHWVRQAPGKGLEWVAVISYDGSNKYYADSVKGRFTISRDNSKNTLYLQMNSLRAEDTAVHYCAKDFRSFDWLPPDSASYHGMDVWGQGTTVTVSS VL: SYELTQPPSVSVPPGQTASITCSGDKLGDKYACWYQQKPGQSPVLVIYQDNKRPSGIPERFSGSNSGNTATLTISGTQAMDEADYYCQAWGRNTVVFGGGTKLTVL	237000
C33B66 (antibody, IgG1, V domains shown, huIgG1 F405L; also called C33F71; C33H55/C33L42) VH: QVQLQESGPGLVKPSGTLSLTCAVSGGSISSSNWWSWVRQPPGRGLEWIGEIYHSGNTNNSPSLKSRVTISADKSKNQFSLKLSSVTAADTAVYFCARIIAVARYFDSWGQGTLVTVSS VL: SYVLTQPPSVSVAPGQTARITCGGNNIGIKSVHWYQQKPGQAPVLVVYDDSDRPPGIPERFSGSNSGNTATLTITRVEAGDEADYYCQVWDSSSDHVVFGGGTKLTVL	445000
C33B55 (antibody, IgG1, V domains shown, huIgG1 F405L; also called C33F60; C33H45/C33L11) VH: QVQLVESGGGVVQPGRSLRLSCAASGFTFSSYGMHWVRQSPGKGLEWVAVISYDGSNKYCADSVKGRFTISRDNSKSTLYLQMNSLRAEDTAVYYCAKDFRSLDWLPPDSTSYDGMDVWGQGTTVTVSS VL: SYELTQPPSVSVSPGQTASITCSGHKLGDKYACWYQQKPGQSPVVVIYKDSKRPSGIPERFSGSNFGNTATLTISGTQAMDEADYYCQAWDSSTVVFGGGTKLTVL	188000
C33B46 (antibody, IgG1, V domains shown, huIgG1 F405L; also called C33F51; C33H108/C33L74) VH: QVQLVQSGSELKKPGASVKVSCKASGYTFSTYAMNWVRQAPGQGLEWMGWINTNTGNPTYAQGFTGRFVFSLDTSVSTAYLQISSLKAEDTAVYYCARDRDRGTDYWGQGTLVTVSS VL: QSALTQPASVSGSPGQSITISCTGTSSDVGDDNYVSWYQQHPGKAPKLMIYDVSNRPSGVSNRFSGSKSGNTASLTISGLQSEDEADYYCSSYSSSTTLEVFGGGTKLTVL	510000
C33B52 (antibody, IgG1, V domains shown, huIgG1 F405L; also called C33F57; C33H42/C33L8) VH: QLQLQESGPGLVNPSETLSHTCTVSGGSISSSSHYWGWIRQPPGKGLEWIGKIYYSGNTYYNPSLKSRVTISIDTSKNQFSLKMSSVTAADTAVYYCARLADVVVVPAARYFDSWGQGTLVTVSS VL: SYELTQPPSVSVSPGQTASIICSGDKLGNKYACWYQQKPGQSPVLVIYQDSKRPSGIPERFSGSNSGNTATLTISGTQAVDEADYYCQAWDSSTYVFGTGTKVTVL	197000
C33B125 (antibody, IgG1, V domains shown, huIgG1 F405L; also called C33F130; C33H84/C33L66) VH: QVQLVESGGGVVQPGRSLRLSCAASGFTFSSYGMHWVRQAPGKGLEWVAVISYDGSNKYYADSVKGRFTISRDNSKNTLYLQMNSLRAEDTAVYYCAKDFRSFDWLPPDSTSYYGMDVWGQGTTVTVSS VL: SYELTQPPSVSVSPGQTASITCSGDKLGDKYVCWYQQKPGQSPVVVIHQDRKRPSGIPERFSGSNFGNTATLTISGTQAMDEADYYCQAWDSSTVVFGGGTKLTVL	259000
C33B124 (antibody, IgG1, V domains shown, huIgG1 F405L; also called C33F129; C33H73/C33L32) VH: EVQLLESGGGLVQPGGSLRLSCAASRFTFSSYAMTWVRQAPGKGLEWVSTINISGGSTYYADSVKGRFTISRDNSKNTLYLQMNSLRAEDTAVYYCTKGGYSSGPFDYWGQGTLVSVSS VL: SYELTQPPSVSVSPGQTASITCSGDKLGDKYVRWYQQKTGQSPVLVMYQDSKRPSGIRERFYGSNSGNTATPTISGTQAVDEAEYYCQAWDSSTGVVFGGGTKLTVL	798
C33B54 (antibody, IgG1, V domains shown, huIgG1 F405L; also called C33F59; C33H44/C33L10) VH: QVQLQQSGPGLVKPSQTLSLTCAISGDSVSSNSAAWNWIRQSPSRGLEWLGRTYYRSKWYNDYAVSVRSRITINPDTSKNQFSLQLNSVTPEDTAVYHCARETMFRGLMDYWGQGTLVTVSS VL: SYVLTQPPSVSVAPGQTARITCGGSNIGSKSVHWYQQKPGQAPVMVVYDDSDRPSGIPERFSGSNSGNTATLTISRVEAGDEADYYCQVWDSSSDVVFGGGTKLTVL	148000
